B1: CPEB3 Ribozyme (parent)
chain: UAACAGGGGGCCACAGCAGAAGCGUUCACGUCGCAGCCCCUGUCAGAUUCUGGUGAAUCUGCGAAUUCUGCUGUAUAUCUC

Variants of: B1
Experiment: self-cleavage, relative activity (ratio to wild type); higher = more cleavage; in vitro, sequencing
For each of the variants below, state its self-cleavage.
Reply with the value as a number alone.

# variant A13C U49C ; its self-cleavage = 0.42

# variant A18G G22U ; its self-cleavage = 0.22

# variant C50A U80A ; its self-cleavage = 0.83

# variant A18G C44U ; its self-cleavage = 0.2

# variant G9A U60C ; its self-cleavage = 0.14

# variant U51A A56U ; its self-cleavage = 0.68

# variant U1C G36C ; its self-cleavage = 0.2

# variant G33A U51G ; its self-cleavage = 0.19

# variant C11G A56C ; its self-cleavage = 0.38

# variant A18G G53A ; its self-cleavage = 0.9

# variant A18U U43C ; its self-cleavage = 0.26

# variant C62A U72G ; its self-cleavage = 0.19

# variant A13U C17G ; its self-cleavage = 0.48

# variant G8U U66G ; its self-cleavage = 0.13

# variant A47G U51C ; its self-cleavage = 0.94

# variant U31C G52C ; its self-cleavage = 1.14

# variant A3G C38U ; its self-cleavage = 0.83

# variant A45C U60A ; its self-cleavage = 0.33

# variant C11G U76A ; its self-cleavage = 0.49

# variant A35C A77U ; its self-cleavage = 1.07

# variant A2C U80A ; its self-cleavage = 1.2

# variant U43C G70A ; its self-cleavage = 0.31

Origin of measurements: the RNAGym collection of RNA variant scans (doi:10.1093/nar/gkz1192)
